Test system: SF-539
Experiment: NCI tumour cell line growth inhibition, 48 h
Calls of active or inactive are those of the source. Rule as the data show it: active = GI50 up to about 1.1 µM and inactive = higher.
Outcome codes: label 1 = active, label 0 = inactive

{"molecule": "Cc1ccc(NC(=O)C(=O)C2C(=O)NC(=O)NC2=O)cc1C", "group": "label 0"}
{"molecule": "O=C(/C=C/c1c(O)ccc2ccccc12)c1ccccc1", "group": "label 0"}
{"molecule": "CCc1nc2cc(F)ccc2[nH]c1=O", "group": "label 0"}
{"molecule": "CCCCCCC1CC(=O)C1(Cl)Cl (stereo not drawn)", "group": "label 0"}
{"molecule": "COc1ccc(C2=C3c4cc(OC)c(OC)cc4CCN3C(=S)SS2)cc1OC", "group": "label 0"}
{"molecule": "C/C=C/C=N/N(c1nnc(-c2ccccc2)c(-c2ccccc2)n1)S(=O)(=O)c1ccc(C)cc1", "group": "label 0"}
{"molecule": "Cc1cc2c(c(N)c1C)C(=O)c1ccccc1C2=O", "group": "label 0"}
{"molecule": "CC1=Nc2nc3ccccc3n2C(C)(C)C1", "group": "label 0"}
{"molecule": "Cn1c2c(c3ccccc31)CCN(CCCCN1CCN(c3cccc(Cl)c3)CC1)C2=O", "group": "label 0"}
{"molecule": "CN1CCC2(c3ccccc3)CC(=O)/C(=C/c3ccc(Cl)c(Cl)c3)C1C2.[O-][Cl+3]([O-])([O-])O (stereo not drawn)", "group": "label 0"}
{"molecule": "C/C(=N/NC(=O)c1ccccc1O)c1ccc(/C(C)=N\\NC(=O)c2ccccc2O)c2nc3cc(C)c(C)cc3nc12", "group": "label 0"}
{"molecule": "CCN(CC)CC1CN=C(N)O1 (stereo not drawn)", "group": "label 0"}
{"molecule": "CC(C)=C1CCC(CN(C)C)C1=O (stereo not drawn)", "group": "label 0"}
{"molecule": "COc1ccc(NC(S)=Nc2ccccc2)cc1", "group": "label 0"}
{"molecule": "COc1ccc(-c2c3c(n(C4OC(COC(C)=O)C(OC(C)=O)C(OC(C)=O)C4OC(C)=O)c(=S)c2C#N)CCCC3)cc1 (stereo not drawn)", "group": "label 0"}
{"molecule": "CN(C)C=C1C(=O)c2c(Br)sc(Br)c2C1=O", "group": "label 0"}
{"molecule": "COC(=O)c1ccc2c(c1)C(NC(C)=O)CCc1cc(OC)c(OC)c(OC)c1-2 (stereo not drawn)", "group": "label 1"}
{"molecule": "C[N+](C)(C)CC(=O)N/N=C\\c1c(O)ccc2ccccc12", "group": "label 0"}
{"molecule": "COc1ccc2cc(/C=N\\NC(=O)Nc3cccc4ccccc34)ccc2c1", "group": "label 0"}
{"molecule": "Nn1c(Cc2ccccc2)n[nH]c1=O", "group": "label 0"}
{"molecule": "COc1cc2c3c(cc(Cl)nc3c1OC)C(O)(CC(C)=O)C(=O)N2 (stereo not drawn)", "group": "label 0"}
{"molecule": "COc1cccc(Nc2nc(-c3cccs3)nc3ccc(Br)cc23)c1", "group": "label 0"}
{"molecule": "COc1cccc(C2SC(=N)Nc3c2c(C)nn3C(=O)Cc2ccccc2)c1 (stereo not drawn)", "group": "label 0"}

* * *

Test system: K562
Assay: NCI tumour cell line growth inhibition, 48 h
Activity calls are given as the source filed them. No stated cut-off is given here; in the data, active = GI50 up to about 1.1 µM and inactive = higher.

{"compound": "Cc1ccc(/N=N/c2c(O)c(C(=O)Nc3ccccc3)cc3ccccc23)c([N+](=O)[O-])c1", "GI50": "> 100 µM (inactive)"}
{"compound": "O=C1C(=CNc2ccc([N+](=O)[O-])cc2)C(=O)N(c2ccccc2)C(=O)N1c1ccccc1", "GI50": "> 100 µM (inactive)"}
{"compound": "COc1ccc(C(C)c2cc3c(cc2OC)OCO3)cc1 (stereo not given)", "GI50": "0.0389 µM (active)"}
{"compound": "O=C(c1ccccc1)c1ccc2[nH]c(-c3c(Cl)c(Cl)c(Cl)c(Cl)c3-c3nnc(-c4ccccc4)o3)nc2c1", "GI50": "4.67 µM (inactive)"}
{"compound": "CC1(O)Oc2ccc3ccccc3c2C=C1C(N)=O (stereo not given)", "GI50": "> 100 µM (inactive)"}

* * *

Test system: RXF 393
Experiment: NCI tumour cell line growth inhibition, 48 h
The source made the active and inactive calls. Cut-off read from the data, not from the text of the source: active = GI50 up to about 1.1 µM and inactive = higher.

{"compound": "C=C(C)C1CC[C@]2(C(=O)O)CCC3(C)[C@H](CCC4[C@@]5(C)CC[C@H](OC6OC(CO)C(O)C6OC6OC(C)C(O)C(O)C6O)[C@@](C)(CO)C5CC[C@]43C)C12 (stereo partly specified)", "target.under.test": "RXF 393", "GI50": "> 100 µM (inactive)"}
{"compound": "Cc1cc(NS(=O)(=O)c2ccc(NC(=O)c3ccc(Cl)c4c(Nc5ccc(S(=O)(=O)Nc6cc(C)on6)cc5)c5ccccc5nc34)cc2)no1", "target.under.test": "RXF 393", "GI50": "> 10 µM (inactive)"}
{"compound": "OCC1NC(COC2OC(CO)C(O)C(O)C2O)C(O)C(O)C1O (stereo unspecified)", "target.under.test": "RXF 393", "GI50": "> 100 µM (inactive)"}
{"compound": "Brc1ccc(-c2ccc(-c3ccc(Br)s3)s2)s1", "target.under.test": "RXF 393", "GI50": "> 100 µM (inactive)"}
{"compound": "CSC(=S)NN=C1CCCC1.CSC(=S)NN=C1CCCC1.[Zn+2]", "target.under.test": "RXF 393", "GI50": "28.4 µM (inactive)"}
{"compound": "COC[C@H](C)/N=C/N1CCc2ccccc2C1(Cc1ccccc1)Cc1ccccc1", "target.under.test": "RXF 393", "GI50": "15.2 µM (inactive)"}
{"compound": "C/C=C/c1cc2c(c(=O)o1)C(=O)[C@@H](O)[C@H](C)O2", "target.under.test": "RXF 393", "GI50": "12.3 µM (inactive)"}
{"compound": "Nc1nc(Nc2ccccc2)sc1C(=O)c1c[nH]c2ccccc12", "target.under.test": "RXF 393", "GI50": "8.49 µM (inactive)"}
{"compound": "CCOC(=O)c1ccc(-c2cccs2)[nH]1", "target.under.test": "RXF 393", "GI50": "> 66.4 µM (inactive)"}
{"compound": "Oc1nc(S)nc2c1CCCN2", "target.under.test": "RXF 393", "GI50": "> 100 µM (inactive)"}
{"compound": "CN(CCNC(=O)c1nn(-c2ccc(Cl)cc2Cl)c2c1Cc1ccccc1-2)CCNC(=O)c1nn(-c2ccc(Cl)cc2Cl)c2c1Cc1ccccc1-2", "target.under.test": "RXF 393", "GI50": "2.25 µM (inactive)"}
{"compound": "Cc1cc(C)nc(NC(=S)Nc2ccccc2Cl)c1", "target.under.test": "RXF 393", "GI50": "> 100 µM (inactive)"}
{"compound": "CCCCN(CC)c1nc(C)nc2c1c(C)c(C)n2-c1c(C)cc(C)cc1C", "target.under.test": "RXF 393", "GI50": "6.93 µM (inactive)"}
{"compound": "COc1ccc(-c2nnc(-c3c(C)n(C)n(-c4ccccc4)c3=O)o2)cc1", "target.under.test": "RXF 393", "GI50": "> 100 µM (inactive)"}
{"compound": "Cc1cc(C)c(N[S+]([O-])c2cccc(Cl)c2)c(C)c1 (stereo unspecified)", "target.under.test": "RXF 393", "GI50": "> 100 µM (inactive)"}
{"compound": "C/C(=N/O)c1sc(-c2nc(C)c(/C(C)=N\\O)s2)nc1C", "target.under.test": "RXF 393", "GI50": "> 100 µM (inactive)"}
{"compound": "CN(C(=O)C1CC1)C1C2CN3CCC(O2)C13 (stereo unspecified)", "target.under.test": "RXF 393", "GI50": "> 100 µM (inactive)"}
{"compound": "N=C(N)NC(=N)Nc1ccc(S(N)(=O)=O)cc1", "target.under.test": "RXF 393", "GI50": "> 100 µM (inactive)"}
{"compound": "O=C(O)CCC(=O)N1C/C(=C\\c2ccccc2)C(=O)/C(=C/c2ccccc2)C1", "target.under.test": "RXF 393", "GI50": "3.67 µM (inactive)"}
{"compound": "COc1cc(OC)c2nc(C)c3c(c2c1)OCC3", "target.under.test": "RXF 393", "GI50": "22.6 µM (inactive)"}
{"compound": "CSC1=C(C(=O)N(COCC[Si](C)(C)C)c2ccccc2Br)CCC(C(C)(C)C)C1 (stereo unspecified)", "target.under.test": "RXF 393", "GI50": "9.79 µM (inactive)"}

* * *

Tested on: U-251
Assay: NCI tumour cell line growth inhibition, 48 h
Calls of active or inactive are those of the source. Cut-off read from the data, not from the text of the source: active = GI50 up to about 1.1 µM and inactive = higher.

{"compound": "CCN1C(c2ccccc2)=CC(c2ccccc2)(C(Cl)(Cl)Cl)C=C1c1ccccc1", "GI50": "6.01 µM (inactive)"}
{"compound": "Ic1cccc(/C=C/CN2CCN(CCOC(c3ccccc3)c3ccccc3)CC2)c1", "GI50": "13.6 µM (inactive)"}
{"compound": "O=Cc1cccc2ccc3ccccc3c12", "GI50": "5.93 µM (inactive)"}
{"compound": "CCOC(=O)C1(Cc2ccccc2)Cc2cc3c(cc2C1)CCC3", "GI50": "30.8 µM (inactive)"}
{"compound": "CCC(C)OC(=O)/C(Br)=C1/OC(=O)c2ccccc2-c2ccccc21 (stereo not given)", "GI50": "> 10 µM (inactive)"}

Origin of values: ChEMBL document CHEMBL1201862
